# TARGET OR SYSTEM: F protein of respiratory syncytial virus (RSV-Long strain), on infectious virus (respiratory syncytial virus (RSV-Long …, UniProt P12568 26-574))
# ASSAY METHOD TEXT: cell-based or functional assay
OBSERVED PROPERTY: EC50 (nM), RSV microneutralization
Output spec: scalar in nM, unitless text.

Reference set, count: 4
Clone 7 (Fab) (Fab, V domains shown) VH: QVTLRESGPALVKPTQTLTLTCTFSGFSLSTAGMSVGWIRQPPGKALEWLADIWWDDKKDYNPSLKSRLTISKDTSKNQVVLKVTNMDPADTATYYCARDMITNFYFDVWGQGTTVTVSS VL: DIQMTQSPSTLSASVGDRVTITCSASSRVGYMHWYQQKPGKAPKLLIYDTFKLASGVPSRFSGSGSGTEFTLTISSLQPDDFATYYCFQGSGYPFTFGGGTKVEIK
1.59
Clone 2 (Fab) (Fab, V domains shown) VH: QVTLRESGPALVKPTQTLTLTCTFSGFSLSTAGMSVGWIRQPPGKALEWLADIWWDDKKDYNPSLKSRLTISKDTSKNQVVLKVTNMDPADTATYYCARDMIFNWYFDVWGQGTTVTVSS VL: DIQMTQSPSTLSASVGDRVTITCSASSSVGYMHWYQQKPGKAPKLLIYDTFKLASGVPSRFSGSGSGTEFTLTISSLQPDDFATYYCFQGSGYPFTFGGGTKVEIK
5.05
Clone 11 (Fab) (Fab, V domains shown) VH: QVTLRESGPALVKPTQTLTLTCTFSGFSLSTPGMSVGWIRQPPGKALEWLADIWWDGKKHYNPSLKDRLTISKDTSKNQVVLKVTNMDPADTATYYCARDMIFNFYFDVWGQGTTVTVSS VL: DIQMTQSPSTLSASVGDRVTITCSPSSRVGYMHWYQQKPGKAPKLLIYDTMRLASGVPSRFSGSGSGTEFTLTISSLQPDDFATYYCFQGSGYPFTFGGGTKVEIK
20.9
Clone 4 (Fab) (Fab, V domains shown, also called H3-3F4) VH: QVTLRESGPALVKPTQTLTLTCTFSGFSLSTAGMSVGWIRQPPGKALEWLADIWWDDKKDYNPSLKSRLTISKDTSKNQVVLKVTNMDPADTATYYCARDMIFNWYFDVWGQGTTVTVSS VL: DIQMTQSPSTLSASVGDRVTITCSASSSVGYMHWYQQKPGKAPKLLIYDTRYLSSGVPSRFSGSGSGTEFTLTISSLQPDDFATYYCFQGSGYPFTFGGGTKVEIK
3.55

Now for another entry.
Entry under test: Clone 14 (Fab) (Fab, V domains shown) VH: QVTLRESGPALVKPTQTLTLTCTFSGFSLSTAGMSVGWIRQPPGKALEWLADIWWDDKKHYNPSLKDRLTISKDTSKNQVVLKVTNMDPADTATYYCARDMIFNWYFDVWGQGTTVTVSS VL: DIQMTQSPSTLSASVGDRVTITCSPSSRVGYMHWYQQKPGKAPKLLIYDTYRHSSGVPSRFSGSGSGTEFTLTISSLQPDDFATYYCFQGSGYPFTFGGGTKVEIK . Its EC50 (nM), RSV microneutralization was 2.23
